# assay.protocol: Approximate solubility of the starting compound in solvents and solvent mixtures
# Assay type: physicochemical
# test.context: organic solvent or mixture, thermodynamic from solid, Ethyl acetate-cyclohexane 3:1
measurement.name: solubility

Task: Provide solubility value for the following compound: O=C(NCc1ncccc1F)c1coc(CCNCCc2nc3ccccc3[nH]2)n1 [SP236-FB-P1]
Output: 5000 to 7000 µg/mL

* * *

# assay.protocol: Approximate solubility of the starting compound in solvents and solvent mixtures
# Assay type: physicochemical
# test.context: organic solvent or mixture, thermodynamic from solid, THF-heptane 3:1
measurement.name: solubility

Task: Provide solubility value for the following compound: O=C(NCc1ncccc1F)c1coc(CCNCCc2nc3ccccc3[nH]2)n1 [SP236-FB-P1]
Output: > 200 mg/mL
